# target or test system: the molecule itself
# experiment description: non-reducing SDS-PAGE; purified rhRKIP in sample loading buffer without β-mercaptoethanol or boiling; Coomassie Brilliant Blue staining or anti-His immunoblot
recorded metric: stoichiometry N
Numbers only.

Some entries whose results are on file:
rhRKIP Ser153 to alanine mutant, histidine-tagged (natural protein, human, UniProt P30086 1-187, looked up, human RKIP (PEBP1), cDNA GenBank NM_002567 in pET28B+, site-directed mutant; Same construct as m1 with the point mutation; also called S153A; source: E. coli BL21(DE3), purified (Ni-NTA)) MPVDLSKWSGPLSLQEVDEQPQHPLHVTYAGAAVDELGKVLTPTQVKNRPTSISWDGLDSGKLYTLVLTDPDAPSRKDPKYREWHHFLVVNMKGNDISSGTVLSDYVGSGPPKGTGLHRYVWLVYEQDRPLKCDEPILSNRSGDHRGKFKVAAFRKKYELRAPVAGTCYQAEWDDYVPKLYEQLSGK :: 2
rhRKIP Ser153 to glutamate mutant, histidine-tagged (natural protein, human, UniProt P30086 1-187, looked up, human RKIP (PEBP1), cDNA GenBank NM_002567 in pET28B+, site-directed mutant; Same construct as m1 with the point mutation; also called S153E; source: E. coli BL21(DE3), purified (Ni-NTA)) MPVDLSKWSGPLSLQEVDEQPQHPLHVTYAGAAVDELGKVLTPTQVKNRPTSISWDGLDSGKLYTLVLTDPDAPSRKDPKYREWHHFLVVNMKGNDISSGTVLSDYVGSGPPKGTGLHRYVWLVYEQDRPLKCDEPILSNRSGDHRGKFKVAEFRKKYELRAPVAGTCYQAEWDDYVPKLYEQLSGK :: 2
rhRKIP C133S mutant, histidine-tagged (natural protein, human, UniProt P30086 1-187, looked up, human RKIP (PEBP1), cDNA GenBank NM_002567 in pET28B+, site-directed mutant; Same construct as m1 with the point mutation; source: E. coli BL21(DE3), purified (Ni-NTA)) MPVDLSKWSGPLSLQEVDEQPQHPLHVTYAGAAVDELGKVLTPTQVKNRPTSISWDGLDSGKLYTLVLTDPDAPSRKDPKYREWHHFLVVNMKGNDISSGTVLSDYVGSGPPKGTGLHRYVWLVYEQDRPLKSDEPILSNRSGDHRGKFKVASFRKKYELRAPVAGTCYQAEWDDYVPKLYEQLSGK :: 2
rhRKIP C168S mutant, histidine-tagged (natural protein, human, UniProt P30086 1-187, looked up, human RKIP (PEBP1), cDNA GenBank NM_002567 in pET28B+, site-directed mutant; Same construct as m1 with the point mutation; source: E. coli BL21(DE3), purified (Ni-NTA)) MPVDLSKWSGPLSLQEVDEQPQHPLHVTYAGAAVDELGKVLTPTQVKNRPTSISWDGLDSGKLYTLVLTDPDAPSRKDPKYREWHHFLVVNMKGNDISSGTVLSDYVGSGPPKGTGLHRYVWLVYEQDRPLKCDEPILSNRSGDHRGKFKVASFRKKYELRAPVAGTSYQAEWDDYVPKLYEQLSGK :: 2

Prompt: Given the protein rhRKIP Ser153 to aspartate mutant, histidine-tagged (natural protein, human, UniProt P30086 1-187, looked up, human RKIP (PEBP1), cDNA GenBank NM_002567 in pET28B+, site-directed mutant; Same construct as m1 with the point mutation; also called S153D; source: E. coli BL21(DE3), purified (Ni-NTA)) MPVDLSKWSGPLSLQEVDEQPQHPLHVTYAGAAVDELGKVLTPTQVKNRPTSISWDGLDSGKLYTLVLTDPDAPSRKDPKYREWHHFLVVNMKGNDISSGTVLSDYVGSGPPKGTGLHRYVWLVYEQDRPLKCDEPILSNRSGDHRGKFKVADFRKKYELRAPVAGTCYQAEWDDYVPKLYEQLSGK , what is its reported stoichiometry N?
Response: 2
